Tested on: Rattus norvegicus
Experiment: Toxicity in anaesthetized-Wistar rat assessed as Q-T ECG interval at 15 mg/kg, ip after 45 mins (reference value: 78.8 +/- 0.927 ms)
Format: organism-based
Parameters: dose 15 mg/kg, route intraperitoneal
Settings: in vivo, 0.75 h
parameter_measured: Activity

Summary for this molecule, C=C[C@H]1CN2CC[C@H]1C[C@@H]2[C@@H](O)c1ccnc2ccc(OC)cc12 [QUINIDINE] : Activity is 91.3 min

====

Test system: Rattus norvegicus
Experiment: Toxicity in anesthetized-normotensive Wistar rat assessed as heart rate at 40 mg/kg, ip after 60 mins (reference value: 314.96 +/- 9.442 bpm)
Type: organism-based
Parameters: dose 40 mg/kg, route intraperitoneal
Settings: in vivo, 1 h
Each entry below carries its recorded Activity.
Write the value in bpm as a bare number.

| compound | Activity [bpm] |
| --- | --- |
| O=C1/C(=C\c2ccccc2)S/C(=N\c2ccccc2)N1CC(O)CN1CCC(C(O)(c2ccccc2)c2ccccc2)CC1 (stereo not given) | 302.12 |
| CCCCN(CCCC)CC(O)CN1C(=O)/C(=C\c2ccccc2)S/C1=N\c1ccccc1 (stereo not given) | 301.69 |
| O=C1/C(=C\c2ccccc2)S/C(=N\c2ccccc2)N1CC(O)CN1CCN(c2ccccc2)CC1 (stereo not given) | 301.92 |
| O=C1/C(=C\c2ccccc2)S/C(=N\c2ccccc2)N1CC(O)CN1CCCCC1 (stereo not given) | 303.32 |

Summary for this compound, O=C1/C(=C\c2ccccc2)S/C(=N\c2ccccc2)N1CC(O)CN1CCNCC1 (stereo not given) : Activity is 298.12

Value source: ChEMBL document CHEMBL3232945
